target: T1, KIR2DL5-Ig fusion protein (KIR2DL5 extracellular domain fused to human IgG1 Fc) (human, UniProt Q8N109 22-240); assay: BLI, Octet RED96; KIR2DL5-Ig captured on anti-human Fc biosensors, mAb in solution; global 1:1 fit
T1 construct: A D0-only fusion (H22-A128) also exists; also called KIR2DL5-human Ig fusion protein; KIR2DL5 DO-D2-Ig; not shown: human IgG1 Fc tag
T1 sequence (Q8N109 22-240): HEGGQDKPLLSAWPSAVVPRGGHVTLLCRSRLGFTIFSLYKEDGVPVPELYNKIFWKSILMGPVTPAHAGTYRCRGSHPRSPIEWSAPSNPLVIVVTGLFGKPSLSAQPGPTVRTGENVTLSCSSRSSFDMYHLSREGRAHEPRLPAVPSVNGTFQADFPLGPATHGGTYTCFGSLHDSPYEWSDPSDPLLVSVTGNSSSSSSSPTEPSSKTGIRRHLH
Reported koff values for a set of binders

- binder: "anti-KIR2DL5 mAb clone B33C12 (antibody, V domains shown, also called B33C12 (IgG2a, κ)) VH: QVQLQQSGAELVKPGASVKMSCKAFGYTFTSFPIEWMKQNHGKSLEWIGNFHPSNDDTKYNEKFNGKAKLTAETSSKTVYLELSRLTSDDSAVYYCARGSDYSFALDYWGQGTSVTVSS VL: GIVLTQSPASLAVSLGQRATISCRASESVDSYGYSFMHWYQQKPGQPPKLLIYRASNLKSGIPARFSGSGSRTDFTLTINPVEADDVATYYCQQSNEDPWTFGGGTKLEIK"
  koff [s⁻¹]: 0.000299
- binder: "anti-KIR2DL5 mAb clone B11B4 (antibody, V domains shown, also called B11B4 (IgG2b, κ)) VH: QVQLQQSGGELVKPGASVKMSCKAFGYTFTSFPIEWMKQNHGKSLEWIGNFHPYNDDTKYNEKFNGKAKLTAETSSKTVYLELSRLTSDDCSVYYCARGSDYSFGLDYWGQGTSVTVSS VL: GIVLTQSPASLVVSLGQRATISCRASESVDSYGYSFMHWYQQKPGQPPKLLIYRASNLKSGIPARFSGSGCRTDFTLTINPVEADDVATYYCQQSNEDPWTFGGGTKAGN"
  koff [s⁻¹]: 0.000202
- binder: "anti-KIR2DL5 mAb clone B2A18 (antibody, V domains shown, also called B2A18, (IgG1, κ)) VH: QIQLVQSGPEVKKPGETVKISCKASGYTFTKYGMNWVKQAPGKGLKWMGWINTNTGESTYAEDFKGRFAFSLETSANTAFLQINNLKNEDTAAYFCARWGPYGSSLYYGMDYWGQGTSVTVS VL: DIQMTQSSSSFSISLGDRVTITCRASEDLYNRLAWYQQKPGNAPRLLISGATSLETGVPSRFSGSGSGKDFTLSIPSVQTEDVGTYYCQQYRYTPWTFGGGTTLN"
  koff [s⁻¹]: 0.000175
- binder: "anti-KIR2DL5 mAb clone B7B23 (antibody, V domains shown, also called B7B23 (IgG1, κ)) VH: QVQLQQSGAELVRPGVSVKISCKGSGYTFTDYTMHWVKQSHAKSLEWIGVISPYYGDASYNQKFKGKATMTVDKSSSTAYMELARLTSEDSAIYYCARGLLRGFAYWGQGTLVTVS VL: DIVMTQSPSSKDMSVGQKVTMRCKSSKSLLNSSNQKKYLAWYQQKPGQSPKLLVYFASIRESGVPDRFIGSGSGTDFTLTISSVQVEDLADYFCQQHYSTPWTFGGG"
  koff [s⁻¹]: "6.96e-05"
- binder: "anti-KIR2DL5 mAb clone F8B30 (antibody, V domains shown, also called F8B30 (IgG1, κ)) VH: QIQLVQSGPELKKPGETVKISCKASGYTFTDYSMHWVKQAPGKGLKWMGWINTETGGPTYADDFKGRFAFSLETSATTAYLQINNLKNEDTATYFCSRDVDLYFDYWGQGTTLTVS VL: DIQMTQSPASLSASVGETVTITCRTSENIYSYLAWYQQKQGKSPQLLVYNAKTLVEGVPSRFSGSGSGTQFSVKINSLQPEDFGNYYCQHHYGIPFTFGGGTKLEIK"
  koff [s⁻¹]: 0.000444
